I'd appreciate it if you could supply viability, T/C values for the items below.
System: NCI-H510 multicellular tumor spheroid growth, % test/control
Assay Comment: Anticancer human tumor NCI-H510 cell line growth inhibition [Asc];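 note: spheroids exposed to agents for 7 days; 100% = DMSO vehicle control wells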
Study Conditions: second compound 0.1 µM; first compound 0.00949 µM; hits give low values

stdin: Give me measured viability, T/C, please, for this molecule: CCN1C(C(=O)NC23CCC(C(=O)O)(CC2)CC3)C(c2cccc(Cl)c2F)C2(C(=O)Nc3cc(Cl)ccc32)C12CCCCC2 (stereo not drawn) + CNC(C)C(=O)NC1CN(S(=O)(=O)c2cccc(S(=O)(=O)N3CCC4CCC(C(=O)NC(c5ccccc5)c5ccccc5)N4C(=O)C(NC(=O)C(C)NC)C3)c2)CCC2CCC(C(=O)NC(c3ccccc3)c3ccccc3)N2C1=O
stdout: 108%

stdin: Give me measured viability, T/C, please, for this molecule: NC(=O)C(=Cn1cnc(-c2cc(C(F)(F)F)cc(C(F)(F)F)c2)n1)c1cncnc1 + CNC(C)C(=O)NC1CN(S(=O)(=O)c2cccc(S(=O)(=O)N3CCC4CCC(C(=O)NC(c5ccccc5)c5ccccc5)N4C(=O)C(NC(=O)C(C)NC)C3)c2)CCC2CCC(C(=O)NC(c3ccccc3)c3ccccc3)N2C1=O
stdout: 107%

stdin: Give me measured viability, T/C, please, for this molecule: Cc1nc(N2CCC3(CC2)COC(C)C3N)c(CO)nc1Sc1ccnc(N)c1Cl (stereo not drawn) + Cc1c(S(C)(=O)=O)c(-c2cc(F)cc(N3CCN(c4ccc(NS(=O)(=O)c5ccc(NC(CCN6CCC(C(=O)OCCCP(=O)(O)O)CC6)CSc6ccccc6)c(S(=O)(=O)C(F)(F)F)c5)cc4)CC3)c2)c(-c2ccc(Cl)cc2)n1C(C)C
stdout: 126%

====

Test system: NCI-H510 multicellular tumor spheroid growth, % test/control
Assay Comment: Anticancer human tumor NCI-H510 cell line growth inhibition [Asc]; active = viability on the fitted dose curve at most 10% of control; inactive = the rest;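 note: spheroids exposed to agents for 7 days; 100% = DMSO vehicle control wells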
Study Conditions: second compound 10 µM; first compound 3.16 µM
Answer with one of the outcomes T (active), F (inactive)

stdin: Hey, what did the test say about C=C(F)C(=O)N1CCN(c2nc(OCC3CCCN3C)nc3c2CCN(c2cccc4cccc(Cl)c24)C3)CC1CC#N (stereo not drawn) + Cc1c(S(C)(=O)=O)c(-c2cc(F)cc(N3CCN(c4ccc(NS(=O)(=O)c5ccc(NC(CCN6CCC(C(=O)OCCCP(=O)(O)O)CC6)CSc6ccccc6)c(S(=O)(=O)C(F)(F)F)c5)cc4)CC3)c2)c(-c2ccc(Cl)cc2)n1C(C)C ?
stdout: T

stdin: Hey, what did the test say about O=C(c1cc(Cc2n[nH]c(=O)c3ccccc23)ccc1F)N1CCN(C(=O)C2CC2)CC1 + Cc1c(S(C)(=O)=O)c(-c2cc(F)cc(N3CCN(c4ccc(NS(=O)(=O)c5ccc(NC(CCN6CCC(C(=O)OCCCP(=O)(O)O)CC6)CSc6ccccc6)c(S(=O)(=O)C(F)(F)F)c5)cc4)CC3)c2)c(-c2ccc(Cl)cc2)n1C(C)C ?
stdout: T

stdin: Hey, what did the test say about C#Cc1c(F)ccc2cc(O)cc(-c3ncc4c(N5CC6CCC(C5)N6)nc(OCC56CCCN5CC(F)C6)nc4c3F)c12 (stereo not drawn) + Cc1c(S(C)(=O)=O)c(-c2cc(F)cc(N3CCN(c4ccc(NS(=O)(=O)c5ccc(NC(CCN6CCC(C(=O)OCCCP(=O)(O)O)CC6)CSc6ccccc6)c(S(=O)(=O)C(F)(F)F)c5)cc4)CC3)c2)c(-c2ccc(Cl)cc2)n1C(C)C ?
stdout: F

The reported numbers originate from PubChem BioAssay AID1963438.
